Test system: small-intestinal enzyme liquid
Assay: Decomposition of a saccharide alone (control solution) by small-intestinal enzyme liquid
Type: biochemical, rat
Details: 5% saccharide alone; Example 3 / Test Examples 2, 3
experimental-endpoint: Liberated glucose concentration (g/L)

[
  {
    "molecule": "OC[C@H]1O[C@H](OC[C@H]2OC(O)[C@H](O)[C@@H](O)[C@@H]2O)[C@H](O)[C@@H](O)[C@@H]1O (stereo partly shown) [isomaltose, reference compound]",
    "value-measured": 2.14
  },
  {
    "molecule": "OC[C@H]1O[C@@H](O[C@H]2[C@H](O)[C@@H](O)C(O)O[C@@H]2CO)[C@H](O)[C@@H](O)[C@H]1O (stereo partly shown) [lactose]",
    "value-measured": 0.23
  },
  {
    "molecule": "OC[C@H]1O[C@H](OC[C@H]2OC(O)(CO)[C@@H](O)[C@@H]2O)[C@H](O)[C@@H](O)[C@@H]1O (stereo partly shown) [palatinose, isomaltulose]",
    "value-measured": 0.11
  },
  {
    "molecule": "OC[C@H]1O[C@@](CO)(O[C@H]2O[C@H](CO)[C@@H](O)[C@H](O)[C@H]2O)[C@@H](O)[C@@H]1O [sucrose]",
    "value-measured": 1.01
  }
]

---

Test system: small-intestinal enzyme liquid
Experiment: Decomposition of a saccharide alone (control solution) by small-intestinal enzyme liquid
Format: biochemical, rat
Details: 5% saccharide alone; Example 3 / Test Examples 2, 3
Quick reference for Liberated fructose concentration among some compounds

[
  {
    "compound": "OC[C@H]1O[C@H](OC[C@H]2OC(O)[C@H](O)[C@@H](O)[C@@H]2O)[C@H](O)[C@@H](O)[C@@H]1O (stereo partly shown) [isomaltose, reference compound]",
    "Liberated fructose concentration": "0.02 g/L"
  },
  {
    "compound": "OC[C@H]1O[C@H](OC[C@H]2OC(O)(CO)[C@@H](O)[C@@H]2O)[C@H](O)[C@@H](O)[C@@H]1O (stereo partly shown) [palatinose, isomaltulose]",
    "Liberated fructose concentration": "0.21 g/L"
  },
  {
    "compound": "OC[C@H]1O[C@@H](O[C@H]2[C@H](O)[C@@H](O)C(O)O[C@@H]2CO)[C@H](O)[C@@H](O)[C@H]1O (stereo partly shown) [lactose]",
    "Liberated fructose concentration": "0.00 g/L"
  },
  {
    "compound": "OC[C@H]1O[C@@](CO)(O[C@H]2O[C@H](CO)[C@@H](O)[C@H](O)[C@H]2O)[C@@H](O)[C@@H]1O [sucrose]",
    "Liberated fructose concentration": "1.09 g/L"
  }
]
